PROCEDURE_SUMMARY: stimulators of insulin release from INS-1E, primary screen, cell-based, 5 mM glucose, NPC library (AID 1117329); further: reference of the scale not given here
ASSAY_CONTEXT: rat INS-1E insulin secretion, at 10 µM, stronger effect = higher value
The compounds listed here are annotated with their insulin secretion stimulation.
Note: unit % is implicit; provide only the numeric part.

Below, 5 compounds whose answers are already recorded.
COc1ccc2nc(SCc3ncc(C)c(OC)c3C)[nH]c2c1; 3.1
OCCN(CCO)c1nc(N2CCCCC2)c2nc(N(CCO)CCO)nc(N3CCCCC3)c2n1; 0.7
CCN(CC)CC(=O)Nc1c(C)cccc1C; -1.4
C/C(=C1\CCOC(=O)S1)N(C=O)Cc1cnc(C)nc1N; 4.7
COc1ccc(C(C#N)C(C)C)cc1OC (stereo unspecified); 2.2

Field: next compound
Just so you know, measured insulin secretion stimulation for "CC(=O)OC[C@H]1O[C@@H](n2ncc(=O)[nH]c2=O)[C@H](OC(C)=O)[C@@H]1OC(C)=O" came out at 1.7

* * *

PROCEDURE_SUMMARY: activators of macrophage pro-inflammatory response, cell-based, murine, luminescence (AID 652131)
ASSAY_CONTEXT: murine macrophage pro-inflammatory reporter, stronger effect = higher value
REPORTED_ENDPOINT: z-score
// return just the number, without any unit appended

CN1CCN(Cc2ccc(-c3cc4ncnc(Nc5ccc(OCc6cccc(F)c6)c(Cl)c5)c4s3)o2)CC1; -0.527
COC(=O)Nc1nc2ccc(Oc3ccc(NC(=O)Nc4ccccc4)cc3)cc2[nH]1; 0.608
COc1cccc(-c2c[nH]c3c(N/N=C/c4ccncc4)ncnc23)c1; -1.59
CNC(=O)c1cncc(/C=C/c2ccccc2Cl)c1; 1.43

Field: next molecule
Just so you know, measured z-score for "Nc1nc(-c2cccc(Cl)c2)c(-c2ccc3ncccc3n2)s1" came out at -0.477

* * *

PROCEDURE_SUMMARY: glucagon-like peptide 1 release enhancers, primary assay, NCI-H716 cell line, NPC library (AID 1117341); further: reference of the scale not given here
ASSAY_CONTEXT: NCI-H716 cells, at 10 µM
The source made the active and inactive calls.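 Rule for the calls: active = compound raises GLP1 secretion from the human gut endocrine cells, with no numeric limit stated; inactive = the rest.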
The reply should be one of these categories: True (active), False (inactive)

Solved entries:
CC(C)=CCC/C(C)=C/CC/C(C)=C/CCC(=O)OC/C=C(\C)CCC=C(C)C; False
O=C(c1cc(O)c(O)c(O)c1)c1ccc(O)c(O)c1O; False

Which result was noted for this molecule in the test: "CCCCCCCCCCCCCC[N+](C)(C)Cc1ccccc1"
False

Which result was noted for this molecule in the test: "CC(=O)O[C@H]1C[C@@H]2CC[C@H]3[C@H]4C[C@H]([N+]5(C)CCCCC5)[C@@H](OC(C)=O)[C@@]4(C)CC[C@@H]3[C@@]2(C)C[C@H]1[N+]1(C)CCCCC1"
False

Which result was noted for this molecule in the test: "CCN(CC)c1ccc(C(=C2C=CC(=[N+](CC)CC)C=C2)c2cc(S(=O)(=O)O)ccc2S(=O)(=O)[O-])cc1"
False

Which result was noted for this molecule in the test: "CCCCCC=CCC=CCCCCCCCC(=O)OCC"
False

Which result was noted for this molecule in the test: "CC/C=C(\C(=O)N[C@@H]1C(=O)N2C(C(=O)OCOC(=O)C(C)(C)C)=C(COC(N)=O)CS[C@H]12)c1csc(N)n1"
False

Which result was noted for this molecule in the test: CCCCCCCCC=CCCCCCCCC(=O)NCCOC(=O)CC(C(=O)O)S(=O)(=O)O (stereo not given)
False

Which result was noted for this molecule in the test: CN(C)[C@@H]1C(=O)C(C(=O)NCN2CCCC2)=C(O)[C@@]2(O)C(=O)C3=C(O)c4c(O)cccc4[C@@](C)(O)C3C[C@@H]12 (stereo not given in full)
True

Which result was noted for this molecule in the test: CC1c2ccccc2CN1NC(=O)c1ccc(Cl)c(S(N)(=O)=O)c1 (stereo not given)
False

Which result was noted for this molecule in the test: CC(C)Cc1ccc(C(C)C(=O)OCc2ccccn2)cc1 (stereo not given)
False

Which result was noted for this molecule in the test: "[O-][n+]1ccccc1SSc1cccc[n+]1[O-]"
False

Which result was noted for this molecule in the test: "CC(C)NCCCC1(C(N)=O)c2ccccc2-c2ccccc21"
False

Which result was noted for this molecule in the test: "Cc1cc(NS(=O)(=O)c2ccc(N)cc2)nc(C)n1"
False

Which result was noted for this molecule in the test: "CCN(CC)CC(=O)OCC(=O)[C@@]1(O)CC[C@H]2[C@@H]3CCC4=CC(=O)CC[C@]4(C)[C@H]3[C@@H](O)C[C@@]21C"
False

Which result was noted for this molecule in the test: CN[C@@H]1[C@@H](O)[C@@H](O[C@@H]2[C@H](O)[C@H](O[C@H]3OC(CN)=CC[C@H]3N)[C@@H](N)C[C@H]2N)OCC1(C)O (stereo not given in full)
False

Which result was noted for this molecule in the test: "Cc1cc(CC(=O)O)c(C)n1-c1ccc(Cl)cc1"
False

Which result was noted for this molecule in the test: Cc1ccc(C(=O)Oc2ccc(C(O)CNC(C)(C)C)cc2OC(=O)c2ccc(C)cc2)cc1 (stereo not given)
False

Which result was noted for this molecule in the test: "CCCc1ccc(C(=O)O)cc1"
False

Which result was noted for this molecule in the test: "C/C=C/C(=O)N(CC)c1ccccc1C"
False

* * *

PROCEDURE_SUMMARY: antimalarial activity against Dd2 strain (AID 2302);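 further: 0% = DMSO untreated growth and 100% = chloroquine plus artemisinin killed control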
ASSAY_CONTEXT: P. falciparum Dd2 in RBCs, LDH growth readout, 72 h; at 2 µM; stronger effect = higher value
The compounds listed here are annotated with their growth inhibition.
Note: unit % is implicit; provide only the numeric part.

CCN(CC)CCCC(C)Nc1c2ccc(Cl)cc2nc2ccc(OC)cc12 (stereo not given); 101
CCN(CC)CCCC(C)Nc1ccnc2cc(Cl)ccc12 (stereo not given); 96
CN(C)c1cc2c(Nc3ccc4nc(Cc5ccccc5)[nH]c4c3)ncnc2cn1; 29
CS(=O)(=O)CCNCc1ccc(-c2ccc3ncnc(Nc4ccc(OCc5ccccc5)c(Cl)c4)c3c2)o1; 76

Field: next compound
Just so you know, measured growth inhibition for "CCCCCN=C(N)N/N=C/c1c[nH]c2ccc(OC)cc12" came out at 2

* * *

PROCEDURE_SUMMARY: growth inhibition of GSK3B-pretreated HCT116 cells – cell-based, CellTiter-Glo, 0.2 to 20 µM (AID 1117336)
ASSAY_CONTEXT: HCT116 viability after GSK3B inhibitor, at 20 µM, stronger effect = higher value
REPORTED_ENDPOINT: viability decrease (%)
Note: unit % is implicit; provide only the numeric part.

Below, 5 compounds whose answers are already recorded.
CC(C)Cc1ccc(CC(=O)O)cc1; -11.5
O=C(CO)[C@@H](O)[C@H](O)[C@@H](O)C(=O)O; -2.4
CCO[C@@H]1O[C@H](C(COCc2ccccc2)OCc2ccccc2)[C@H](OCc2ccccc2)[C@H]1O (some centres undefined); 15.1
CCOC(=O)N1CCC(Nc2ccc(Cl)cc2N)CC1; 0.9
CC(=O)N1CCN(c2ccc(O)cc2)CC1; 73.5

Just so you know, measured viability decrease for "CC1(C)O[C@@H]2C[C@H]3[C@@H]4C[C@H](F)C5=CC(=O)C=C[C@]5(C)[C@H]4[C@@H](O)C[C@]3(C)[C@]2(C(=O)CO)O1" came out at -31.1

Just so you know, measured viability decrease for "NC(=O)CC[C@@H]1NC(=O)[C@H](Cc2ccccc2)NC(=O)[C@H](Cc2ccc(O)cc2)NC(=O)CCSSC[C@@H](C(=O)N2CCC[C@H]2C(=O)N[C@@H](CCCN=C(N)N)C(=O)NCC(N)=O)NC(=O)[C@H](CC(N)=O)NC1=O" came out at 8.4

Just so you know, measured viability decrease for "C[C@@H](CN(C)C)CN1c2ccccc2Sc2ccccc21" came out at -61.3

Just so you know, measured viability decrease for "COc1ccc(S(=O)(=O)N2c3ccc(Cl)cc3[C@@](O)(c3ccccc3Cl)[C@H]2C(=O)N2CCC[C@@H]2C(N)=O)cc1OC" came out at 47.7

* * *

PROCEDURE_SUMMARY: stimulators of nuclear beta-catenin in C2C12, primary screen, imaging, WNT3A-conditioned medium, mouse C2C12, NPC library (AID 1117326); further: reference of the scale not given here
ASSAY_CONTEXT: at 10 µM, stronger effect = higher value
The compounds listed here are annotated with their nuclear beta-catenin stimulation.
Note: unit % is implicit; provide only the numeric part.

Just so you know, measured nuclear beta-catenin stimulation for "C[C@H](CCC(=O)O)[C@H]1CC[C@H]2[C@@H]3CC[C@@H]4C[C@H](O)CC[C@]4(C)[C@@H]3C[C@H](O)[C@]12C" came out at -0.7

Just so you know, measured nuclear beta-catenin stimulation for "COc1ccc([C@@H]2CC(=O)c3c(O)cc(O[C@@H]4O[C@H](CO[C@@H]5O[C@@H](C)[C@H](O)[C@@H](O)[C@@H]5O)[C@@H](O)[C@H](O)[C@@H]4O)cc3O2)cc1O" came out at 1.6

Just so you know, measured nuclear beta-catenin stimulation for "O=P(O)(O)C(O)(Cc1cnc2ccccn12)P(=O)(O)O" came out at -0.5

Just so you know, measured nuclear beta-catenin stimulation for "CC[C@@]1(O)C(=O)OCc2c1cc1n(c2=O)Cc2c-1nc1ccccc1c2/C=N/OC(C)(C)C" came out at 38.7

Just so you know, measured nuclear beta-catenin stimulation for "Cc1nc2ccccn2c(=O)c1CCN1CCC(C(=O)c2ccc(F)cc2)CC1" came out at -0.7
